The binders listed here are annotated with their koff.
system: IgG1 (product of Sigma-Aldrich)
testMethodNotes: SPR (Biacore T100), Fc-binding protein immobilized on CM5 chip, IgG1 in flow
Answer with a number only, understood to be in s⁻¹.

Below, each entry is followed by its recorded koff result.
binder: FcR36i-containing Fc-binding protein (SEQ ID NO: 9) (receptor) KIEEAMGMRTGDMPKAEVILEPPWNRVLEQDSVTLKCRGAHSPDDDSTQWFHNERLIPSQASSFIIDSASVDDSGEYRCQTSLSTLSDPVQLEVHIGWLLLQAPRWEFVEGEPIHLRCHSWRNTALHKVMFLQNGKVRKYFHHNSDFVIPKATLEDSGSYSCRGLIGRKKVSSGAVDITVTQGGHHHHHH
koff [s⁻¹]: 0.038
//
binder: FcR9_A (SEQ ID NO: 26), Fc-binding protein containing the amino acid substitution Val192Ala (receptor) KIEEAMGMRTEDLPKAEVILEPQWNRVLEKDSVTLKCRGAYSPEDNSTQWFHNESLISSQASSYLIDAATVDDSGEYRCQTSLSTLSDPVQLEVHIGWLLLQAPRWEFKEGDPIHLRCHSWKNTALHKVTYLQNGKGRKYFHHNSDFYIPKATLKDSGSYSCRGLAGSKNVSSETVNITITQGGHHHHHH
koff [s⁻¹]: 0.0035

Moving on to another binder below.
Briefly, koff measured for FcR9_I (SEQ ID NO: 24), Fc-binding protein containing the amino acid substitution Val192Ile (receptor) KIEEAMGMRTEDLPKAEVILEPQWNRVLEKDSVTLKCRGAYSPEDNSTQWFHNESLISSQASSYLIDAATVDDSGEYRCQTSLSTLSDPVQLEVHIGWLLLQAPRWEFKEGDPIHLRCHSWKNTALHKVTYLQNGKGRKYFHHNSDFYIPKATLKDSGSYSCRGLIGSKNVSSETVNITITQGGHHHHHH : 0.012
